target: human α1b-adrenoceptor (Homo sapiens, UniProt P35368); construct: expressed in transfected cells; test: [3H]prazosin binding to cloned human α1-adrenoceptor subtypes (α1b); settings: selectivity: ratio of Ki at α1b and Ki at 5-HT1A
Sequence (P35368 whole entry): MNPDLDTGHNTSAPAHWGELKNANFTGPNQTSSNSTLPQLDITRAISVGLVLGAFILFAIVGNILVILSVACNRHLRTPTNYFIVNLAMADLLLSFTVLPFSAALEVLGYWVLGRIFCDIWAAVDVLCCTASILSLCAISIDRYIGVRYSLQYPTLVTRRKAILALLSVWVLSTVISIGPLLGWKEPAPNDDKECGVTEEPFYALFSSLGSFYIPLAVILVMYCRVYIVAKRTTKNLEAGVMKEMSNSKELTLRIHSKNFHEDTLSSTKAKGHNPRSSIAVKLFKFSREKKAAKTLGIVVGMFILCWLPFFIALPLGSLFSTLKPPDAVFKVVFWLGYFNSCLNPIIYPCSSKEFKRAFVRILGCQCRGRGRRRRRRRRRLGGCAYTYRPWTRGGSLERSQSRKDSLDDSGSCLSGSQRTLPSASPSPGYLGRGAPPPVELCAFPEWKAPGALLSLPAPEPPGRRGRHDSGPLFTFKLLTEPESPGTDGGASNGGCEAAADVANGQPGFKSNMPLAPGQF
measured.endpoint: α1b/5-HT1A

>>> observed("COc1ccccc1N1CCN(CC[C@H](c2ccccc2F)[C@H](O)C2CCCCC2)CC1")
46
>>> observed("COc1ccccc1N1CCN(CC[C@H](c2ccccc2F)[C@@H](O)C2CCCCC2)CC1")
30
>>> observed("COc1ccccc1N1CCN(CC[C@H](c2ccccc2)[C@@H](O)C2CCCCC2)CC1 (racemic) [Ex. 5, reference compound]")
18
>>> observed("COc1ccccc1N1CCN(CC[C@@H](c2ccccc2F)[C@H](O)C2CCCCC2)CC1 (racemic)")
45

Reference for the values: patent US7071197B2
